# System: 5-hydroxytryptophan-induced tremors in mice
# protocol-summary: Potentiation of 5-hydroxytryptophan-induced behavioral symptoms (tremors) in vivo
# Parameters: species or system mouse (Swiss-Webster CD)
# condition-info: Mus musculus, po, 1 h, read-out: ED50 (tremors)
endpoint: ED50

Exam item: Using the record for CN(C)[C@H]1CC[C@@H](c2ccc(C(F)(F)F)cc2)c2ccccc21 (relative stereo) , report its ED50.
Marked response: 32 to 56 mg/kg

Exam item: Using the record for CN[C@@H]1CC[C@H](c2ccc(Cl)cc2)c2ccccc21.Cl (relative stereo) , report its ED50.
Marked response: 10 to 32 mg/kg

Exam item: Using the record for CN[C@H]1CC[C@@H](c2ccc(Cl)c(Cl)c2)c2ccccc21 (relative stereo) , report its ED50.
Marked response: 3.2 to 5.6 mg/kg

Exam item: Using the record for CN[C@@H]1CC[C@H](c2cccc(C(F)(F)F)c2)c2ccccc21 (relative stereo) , report its ED50.
Marked response: 10 to 32 mg/kg

Exam item: Using the record for CN(C)[C@H]1CC[C@@H](c2cccc(C(F)(F)F)c2)c2ccccc21 (relative stereo) , report its ED50.
Marked response: 3.2 to 10 mg/kg

Exam item: Using the record for "CN[C@H]1CC[C@@H](c2ccc(Cl)c(C(F)(F)F)c2)c2ccccc21" , report its ED50.
Marked response: 3.2 to 10 mg/kg

====

# Tested on: Synaptosomal Uptake of Dopamine (DA), rat corpus striatum
# protocol-summary: Blockade of synaptosomal uptake of dopamine (DA) in vitro
# Type: biochemical, rat (Sprague-Dawley CD)
# condition-info: Examples 26-49, Hydrochloride
Structures can show the parent of a compound that is named as a salt.
endpoint: IC50 (nM)
Your answer is read as nM, so omit the unit and give the number.

Exam item: For Synaptosomal Uptake of Dopamine (DA), rat corpus striatum, provide IC50 of CN[C@@H]1CC[C@H](c2ccc(Cl)cc2)c2ccccc21 (relative stereo) [Example 6, Hydrochloride] please.
Marked response: 1500

====

# Tested on: Synaptosomal Uptake of Dopamine (DA), rat corpus striatum
# protocol-summary: Blockade of synaptosomal uptake of dopamine (DA) in vitro
# Assay type: biochemical, rat (Sprague-Dawley CD)
# condition-info: Examples 26-49
Counter-ions that a name gives are not always drawn.
What pIC50 was measured for each of the following?
Entry type: numeric. Quantity: pIC50, the -log10 of concentration in molar units.

Exam item: Using the record for "CN[C@H]1CC[C@@H](c2ccc(Cl)c(C(F)(F)F)c2)c2ccccc21" , report its pIC50.
Marked response: 5.17

Exam item: Using the record for CN(C)[C@H]1CC[C@@H](c2cccc(C(F)(F)F)c2)c2ccccc21 (relative stereo) , report its pIC50.
Marked response: 5.15

Exam item: Using the record for CN(C)[C@H]1CC[C@@H](c2ccc(C(F)(F)F)cc2)c2ccccc21 (relative stereo) , report its pIC50.
Marked response: 4.92

Exam item: Using the record for CN[C@H]1CC[C@@H](c2ccccc2)c2ccccc21 (relative stereo) [Comparative Example, hydrochloride, reference compound] , report its pIC50.
Marked response: 5.29

Exam item: Using the record for CN[C@@H]1CC[C@H](c2ccc(Cl)c(C(F)(F)F)c2)c2ccccc21 [Example 14] , report its pIC50.
Marked response: 6.26

Exam item: Using the record for CN[C@H]1CC[C@@H](c2ccc(F)cc2)c2ccccc21 (relative stereo) [Example 7, Hydrochloride] , report its pIC50.
Marked response: 5.33

Exam item: Using the record for CN[C@@H]1CC[C@H](c2cccc(C(F)(F)F)c2)c2ccccc21 (relative stereo) , report its pIC50.
Marked response: 5.60

Exam item: Using the record for CN[C@H]1CC[C@@H](c2ccc(Br)cc2)c2ccccc21 (relative stereo) [Example 16, Hydrochloride] , report its pIC50.
Marked response: 5.80

Exam item: Using the record for CN[C@H]1CC[C@@H](c2ccccc2OC)c2ccccc21 (relative stereo) , report its pIC50.
Marked response: 4.96

Exam item: Using the record for CN[C@H]1CC[C@@H](c2ccc(OC)cc2)c2ccccc21 (relative stereo) [Example 17, Hydrochloride] , report its pIC50.
Marked response: 5.38

Exam item: Using the record for "CN[C@@H]1CC[C@H](c2ccc(C(F)(F)F)cc2)c2ccccc21" , report its pIC50.
Marked response: 5.25

Exam item: Using the record for CN[C@H]1CC[C@@H](c2cccc(OC)c2)c2ccccc21 (relative stereo) , report its pIC50.
Marked response: 5.30

Exam item: Using the record for CN[C@H]1CC[C@@H](c2ccc(C(F)(F)F)cc2)c2ccccc21 (relative stereo) [Example 8] , report its pIC50.
Marked response: 5.11

Exam item: Using the record for CN(C)[C@@H]1CC[C@H](c2ccc(Cl)cc2)c2ccccc21 (relative stereo) , report its pIC50.
Marked response: 5.25

Exam item: Using the record for CN[C@H]1CC[C@@H](c2ccc(C(F)(F)F)cc2)c2ccccc21 [Example 9] , report its pIC50.
Marked response: 5.19

Exam item: Using the record for CN[C@H]1CC[C@@H](c2ccc(Cl)cc2)c2ccc(Cl)cc21 (relative stereo) [Example 15, Hydrochloride] , report its pIC50.
Marked response: 5.89

Exam item: Using the record for CN[C@@H]1CC[C@H](c2ccc(Cl)c(C(F)(F)F)c2)c2ccccc21 (relative stereo) [Example 12] , report its pIC50.
Marked response: 5.82

Exam item: Using the record for CN[C@H]1CC[C@@H](c2ccc(Cl)cc2Cl)c2ccccc21 (relative stereo) [Example 20, Hydrochloride] , report its pIC50.
Marked response: 5.77

Exam item: Using the record for CN[C@H]1CC[C@@H](c2ccc(Cl)cc2)c2ccc(OC)cc21 (relative stereo) [Example 21, Hydrochloride] , report its pIC50.
Marked response: 6.36
